Answer each item with its documented melting point.
Value expressed in °C; do not type the unit.

Record request: melting point value, item "O=C(O)c1cc(F)c(F)cc1F" 100

Record request: melting point value, item "O=[N+]([O-])c1ccccc1Nc1ccccc1" 75

Record request: melting point value, item "Cc1cc(Br)ccc1[N+](=O)[O-]" 78

Record request: melting point value, item "O=C(N[C@@H](Cc1ccccc1)C(=O)O)OCc1ccccc1" 88.5

Record request: melting point value, item "Cc1cc(S(=O)(=O)c2ccccc2)ccc1NS(=O)(=O)C(F)(F)F" 143

Record request: melting point value, item "Cc1cc([N+](=O)[O-])c(N)c([N+](=O)[O-])c1" 172

Record request: melting point value, item "Brc1cc2c(cc1Br)Oc1ccccc1O2" 158

Record request: melting point value, item "FC(F)=C(Cl)C(F)(F)F" -130

Record request: melting point value, item "CC1(C)CC(N)CC(C)(C)N1" 17

Record request: melting point value, item "Cc1nc(=O)c2ccccc2[nH]1" 232

Record request: melting point value, item "O=S(=O)(c1ccccc1)c1ccc(Cl)cc1" 94

Record request: melting point value, item CCOC(=O)C(C)Oc1ccc(Oc2nc3ccc(Cl)cc3o2)cc1 (stereo not drawn) 86.2

Record request: melting point value, item "COc1cc(O)cc(OC)c1" 37

###

Response field label: string, one of true (log10 Koc (L/kg) strictly below 4) or false.

Problem: For the compound CP(=O)(O)CCC(N)C(=O)O (centres undefined) , is log10 Koc (L/kg) under 4? true

Problem: For the compound "O=C(Nc1ccccc1)NC1CCCCC1" , is log10 Koc (L/kg) under 4? true

Problem: For the compound CC(C)C(C(=O)OC(C#N)c1cccc(Oc2ccccc2)c1)c1ccc(Cl)cc1 (centres undefined) , is log10 Koc (L/kg) under 4? true

Problem: For the compound "Clc1ccc(Cl)c(-c2ccccc2Cl)c1" , is log10 Koc (L/kg) under 4? false

Problem: For the compound "Fc1cccc2[nH]nnc12" , is log10 Koc (L/kg) under 4? true

Problem: For the compound "OCc1c2ccccc2cc2ccccc12" , is log10 Koc (L/kg) under 4? true

Problem: For the compound "CN(C)CCN(Cc1cccs1)c1ccccn1" , is log10 Koc (L/kg) under 4? true

Problem: For the compound "c1cc2c3c(cccc3c1)CC2" , is log10 Koc (L/kg) under 4? true

Problem: For the compound "CCOP(=S)(OCC)SCS(=O)(=O)C(C)(C)C" , is log10 Koc (L/kg) under 4? true

Problem: For the compound "c1ccccc1" , is log10 Koc (L/kg) under 4? true

Problem: For the compound "c1ccc2nc3ccc4ccccc4c3cc2c1" , is log10 Koc (L/kg) under 4? false

Problem: For the compound "COc1nc(Cl)c(Cl)cc1Cl" , is log10 Koc (L/kg) under 4? true

Problem: For the compound "COc1ccc(C(c2ccc(OC)cc2)C(Cl)(Cl)Cl)cc1" , is log10 Koc (L/kg) under 4? false

###

Classification field: 1 = melting point at or over 100 °C; 0 = melting point under 100 °C.

Is melting point for "CN(C)C(=S)Cl" at or above 100 °C? 0

Is melting point for "c1cc2ccc3ccc4ccc5ccc6ccc1c1c2c3c4c5c61" at or above 100 °C? 1

Is melting point for CC1OC(=O)C=C2C3=C(OC(C)(C)CC3)C(=O)C(O)=C21 (stereo unspecified) at or above 100 °C? 1

Is melting point for "Cc1ccc2[nH]cnc2c1" at or above 100 °C? 1

Is melting point for CC(NNC(=O)c1ccccc1)c1ccccc1 (stereo unspecified) at or above 100 °C? 0

Is melting point for "CC(C)CCOC(=O)C(=O)OCCC(C)C" at or above 100 °C? 0

Is melting point for "Cc1cc(C)[nH]n1" at or above 100 °C? 1

Is melting point for "Oc1cccc(F)c1" at or above 100 °C? 0

Is melting point for "C=CC(=O)OCCN(CC)CC" at or above 100 °C? 0

Is melting point for "O=C(N[C@H](CO)[C@H](O)c1ccc([N+](=O)[O-])cc1)C(Cl)Cl" at or above 100 °C? 1

Is melting point for "ClC(Cl)(Cl)Br" at or above 100 °C? 0

Is melting point for "CCCB(O)O" at or above 100 °C? 1

Is melting point for "Oc1ccc(Cl)c2c1CCC2" at or above 100 °C? 0

Is melting point for "Oc1ccc(O)c(Br)c1" at or above 100 °C? 1

Is melting point for "NC(=O)c1ccc(N)cc1" at or above 100 °C? 1

Is melting point for "Cc1cc(C)ncn1" at or above 100 °C? 0

###

Class (by melting point) -- 0 = under 40 °C, 1 = from 40 °C up to 90 °C, 2 = 90 °C and over

Looking at "CCC(C)(C)C(=O)O" , which class would you pick? 0

Looking at "COc1ccccc1C=O" , which class would you pick? 0

Looking at "Cc1ncc(CO)c(C=O)c1O.Cl" , which class would you pick? 2

Looking at "CCCCCCCC" , which class would you pick? 0

Looking at "CCCCCCCCCc1ccc(O)cc1" , which class would you pick? 1

Looking at "COc1cc(Oc2ccc(Cl)cc2Cl)ccc1[N+](=O)[O-]" , which class would you pick? 2

Looking at "O=[N+]([O-])C(CO)(CO)CO" , which class would you pick? 2

Looking at N[C@H](CCS)C(=O)O (racemic) , which class would you pick? 2

Looking at "CC(=S)Nc1ccccc1" , which class would you pick? 1

Looking at "Cc1c(C)c(C)c(C(=O)O)c(C)c1C" , which class would you pick? 2

Looking at "CCOC(=O)C(=O)CC(C)=O" , which class would you pick? 0

Looking at "CCCCCCCCCCCCCCCCCCCCCCCCCCCCO" , which class would you pick? 1

Looking at "O=C(CCl)OC(=O)CCl" , which class would you pick? 1

Looking at "CCc1cccc(CC)c1" , which class would you pick? 0

Looking at "CCOC(N)=O" , which class would you pick? 1

###

measurement.type: log10 vapour pressure (mmHg)
Reply: number alone, nothing else.

Record request: log10 vapour pressure (mmHg) value, item CCOC(=O)/C=C(C)/C=C/CC(C)CCCC(C)C (centres undefined) -3.61

Record request: log10 vapour pressure (mmHg) value, item "O=CCc1ccccc1" -0.407

Record request: log10 vapour pressure (mmHg) value, item "CN1CCCC1" 2

Record request: log10 vapour pressure (mmHg) value, item "CCCCCCBr" 0.591

Record request: log10 vapour pressure (mmHg) value, item "CC(C)(C)c1cc(C(C)(C)C)c(O)c(C(C)(C)C)c1" -3.18

Record request: log10 vapour pressure (mmHg) value, item CCCCC(CC)CNCC(CC)CCCC (centres undefined) -2

Record request: log10 vapour pressure (mmHg) value, item "O=C1CCC(=O)N1" -4.12

Record request: log10 vapour pressure (mmHg) value, item "CC(C)(C)[N+](=O)[O-]" 1.08

Record request: log10 vapour pressure (mmHg) value, item "ClCCBr" 1.52

Record request: log10 vapour pressure (mmHg) value, item "COC(=O)c1ccccc1N" -1.57

Record request: log10 vapour pressure (mmHg) value, item "Fc1ccc(F)c(F)c1F" 1.69

Record request: log10 vapour pressure (mmHg) value, item "CCC(C)CC" 2.28

Record request: log10 vapour pressure (mmHg) value, item "CC(C)CCO[N+](=O)[O-]" 0.71

Record request: log10 vapour pressure (mmHg) value, item "CCCCCCCCCCCCCCCCCCCC(=O)OCC" -7.72

Record request: log10 vapour pressure (mmHg) value, item "C=C(C)C(=O)OCC(C)C" 0.56

Record request: log10 vapour pressure (mmHg) value, item "CCc1ccc(O)c(C(C)(C)C)c1" -1.74

Record request: log10 vapour pressure (mmHg) value, item C#CCOC(=O)/C=C(C)/C=C/CC(C)CCCC(C)C (centres undefined) -5.14

Record request: log10 vapour pressure (mmHg) value, item "CC(C)OC(=O)C(O)(c1ccc(Cl)cc1)c1ccc(Cl)cc1" -6.74

Record request: log10 vapour pressure (mmHg) value, item "CC1CC1" 3.2

Record request: log10 vapour pressure (mmHg) value, item "C=CC#N" 2.04

Record request: log10 vapour pressure (mmHg) value, item "CCCCCCCCC=O" -0.432

Record request: log10 vapour pressure (mmHg) value, item "CCC(=O)OCC(C)C" 0.811

Record request: log10 vapour pressure (mmHg) value, item "CCCCN(CCCC)SN(C)C(=O)Oc1cccc2c1OC(C)(C)C2" -6.51

Record request: log10 vapour pressure (mmHg) value, item "Ic1ccccc1" 0.0253

Record request: log10 vapour pressure (mmHg) value, item "c1ccc2cc3c(cc2c1)-c1cccc2cccc-3c12" -9.02

Record request: log10 vapour pressure (mmHg) value, item "CCOC(=O)CCl" 0.687

Record request: log10 vapour pressure (mmHg) value, item "O=C(NC(=O)c1ccccc1Cl)Nc1ccc(OC(F)(F)F)cc1" -9.52

Record request: log10 vapour pressure (mmHg) value, item "O=[N+]([O-])c1ccc(Cl)cc1" -1.66

Record request: log10 vapour pressure (mmHg) value, item "CCCl" 3

Record request: log10 vapour pressure (mmHg) value, item "Clc1ccc(Oc2ccccc2Cl)cc1Cl" -3.85

Record request: log10 vapour pressure (mmHg) value, item "Clc1ccc2c(c1)Oc1ccccc1O2" -4.89

Record request: log10 vapour pressure (mmHg) value, item "CC(C)CI" 1.19

Record request: log10 vapour pressure (mmHg) value, item "O=C1C(Cl)=C(Cl)C(=O)c2ccccc21" -5.96

Record request: log10 vapour pressure (mmHg) value, item "COc1c(O)cc(Cl)c(Cl)c1Cl" -3.05
